experiment: Solubility of UV absorber in oil comprising ionic liquid; type: physicochemical; details: oil/ionic liquid mixture, 21 °C, oil or lipid, thermodynamic from solid, Oil/IL 60/40 weight ratio, IL N-ethyl-N′-methylimidazolium isononanoate, read-out: Solubility of Tinosorb ® S with Cetiol ® B as oil
quantityName: solubility (mg/mL)
Supply the numeric figure in mg/mL, leaving out any unit text.

Provide measured solubility value, entry: CCCCC(CC)COc1ccc(-c2nc(-c3ccc(OC)cc3)nc(-c3ccc(OCC(CC)CCCC)cc3O)n2)c(O)c1 (stereo not shown)
22.4

----------
assay: Solubility of agrochemical active ingredient in oil comprising ionic liquid; format: physicochemical; conditions: Cetiol B oil comprising ionic liquid, 21 °C, oil or lipid, thermodynamic from solid, 21° C.; Oil/IL 20/80 weight ratio; IL N-butyl-N′-methylimidazolium dimethylphosphate; read-out: Solubility of fluxapyroxad with Cetiol ® B as oil
quantityName: solubility (mg/mL)
Supply the numeric figure in mg/mL, leaving out any unit text.

Provide measured solubility value, entry: `Cn1cc(C(=O)Nc2ccccc2-c2cc(F)c(F)c(F)c2)c(C(F)F)n1`
44.1

----------
assay: Solubility of agrochemical active ingredient in oil comprising ionic liquid; format: physicochemical; conditions: Cetiol B oil comprising ionic liquid, 21 °C, oil or lipid, thermodynamic from solid, 21° C.; Oil/IL 60/40 weight ratio; IL N-propyl-N′-propylimidazolium acetate; read-out: Solubility of fluxapyroxad with Cetiol ® B as oil
quantityName: solubility (mg/mL)
Supply the numeric figure in mg/mL, leaving out any unit text.

Provide measured solubility value, entry: `Cn1cc(C(=O)Nc2ccccc2-c2cc(F)c(F)c(F)c2)c(C(F)F)n1`
49.6

----------
experiment: Solubility of agrochemical active ingredient in oil comprising ionic liquid; assay type: physicochemical; settings: neat ionic liquid (no oil), 21 °C, organic solvent or mixture, thermodynamic from solid, 21° C.; 100 IL (no oil); IL N-ethyl-N′-ethylimidazolium propionate; read-out: Solubility of fluxapyroxad with Cetiol ® B as oil
quantityName: solubility (mg/mL)
Supply the numeric figure in mg/mL, leaving out any unit text.

Provide measured solubility value, entry: `Cn1cc(C(=O)Nc2ccccc2-c2cc(F)c(F)c(F)c2)c(C(F)F)n1`
45.7

----------
experiment: Solubility of agrochemical active ingredient in oil comprising ionic liquid; type: physicochemical; conditions: Cetiol B oil comprising ionic liquid, 21 °C, oil or lipid, thermodynamic from solid, 21° C.; Oil/IL 20/80 weight ratio; IL N-propyl-N′-propylimidazolium acetate; read-out: Solubility of fluxapyroxad with Cetiol ® B as oil
quantityName: solubility (mg/mL)
Supply the numeric figure in mg/mL, leaving out any unit text.

Provide measured solubility value, entry: Cn1cc(C(=O)Nc2ccccc2-c2cc(F)c(F)c(F)c2)c(C(F)F)n1 [fluxapyroxad]
59.2

----------
assay: Solubility of agrochemical active ingredient in oil comprising ionic liquid; assay type: physicochemical; conditions: 21 °C, organic solvent or mixture, thermodynamic from solid, Solubility of fluxapyroxad with Solvesso ® 200 ND as oil
quantityName: solubility (µg/mL)
Supply the numeric figure in µg/mL, leaving out any unit text.

Provide measured solubility value, entry: `Cn1cc(C(=O)Nc2ccccc2-c2cc(F)c(F)c(F)c2)c(C(F)F)n1`
5000

----------
experiment: Solubility of agrochemical active ingredient in oil comprising ionic liquid; assay type: physicochemical; conditions: Cetiol B oil comprising ionic liquid, 21 °C, oil or lipid, thermodynamic from solid, 21° C.; Oil/IL 90/10 weight ratio; IL N-butyl-N′-methylimidazolium acetate; read-out: Solubility of fluxapyroxad with Cetiol ® B as oil
quantityName: solubility (mg/mL)
Supply the numeric figure in mg/mL, leaving out any unit text.

Provide measured solubility value, entry: `Cn1cc(C(=O)Nc2ccccc2-c2cc(F)c(F)c(F)c2)c(C(F)F)n1`
23.7

----------
Assay: Solubility of agrochemical active ingredient in oil comprising ionic liquid
Format: physicochemical
Conditions: 21 °C, oil or lipid, thermodynamic from solid, 21° C.; Oil/IL 90/10 weight ratio; IL N-ethyl-N′-ethylimidazolium propionate; read-out: Solubility of fluxapyroxad with Solvesso ® 200 ND as oil
Source text: Alternatively, the oil, which comprised the ionic liquid, was saturated with the active ingredient and the soluble fraction of active ingredient was quantified by means of HPLC. In the first line of the tables, in each case the weight ratios of oil to IL are given.
quantityName: solubility (mg/mL)
Supply the numeric figure in mg/mL, leaving out any unit text.

Provide measured solubility value, entry: Cn1cc(C(=O)Nc2ccccc2-c2cc(F)c(F)c(F)c2)c(C(F)F)n1 [fluxapyroxad]
21.3

----------
assay: Solubility of agrochemical active ingredient in oil comprising ionic liquid; assay type: physicochemical; details: Cetiol B oil comprising ionic liquid, 21 °C, oil or lipid, thermodynamic from solid, 21° C.; Oil/IL 80/20 weight ratio; IL Cholinium octanoate; read-out: Solubility of fluxapyroxad with Cetiol ® B as oil
quantityName: solubility (mg/mL)
Supply the numeric figure in mg/mL, leaving out any unit text.

Provide measured solubility value, entry: Cn1cc(C(=O)Nc2ccccc2-c2cc(F)c(F)c(F)c2)c(C(F)F)n1 [fluxapyroxad]
20.8

----------
assay: Solubility of agrochemical active ingredient in oil comprising ionic liquid; format: physicochemical; details: 21 °C, oil or lipid, thermodynamic from solid, 21° C.; Oil/IL 20/80 weight ratio; IL N-ethyl-N′-ethylimidazolium propionate; read-out: Solubility of fluxapyroxad with Solvesso ® 200 ND as oil
quantityName: solubility (mg/mL)
Supply the numeric figure in mg/mL, leaving out any unit text.

Provide measured solubility value, entry: Cn1cc(C(=O)Nc2ccccc2-c2cc(F)c(F)c(F)c2)c(C(F)F)n1 [fluxapyroxad]
39.4

----------
test: Solubility of agrochemical active ingredient in oil comprising ionic liquid; assay type: physicochemical; details: Cetiol B oil comprising ionic liquid, 21 °C, oil or lipid, thermodynamic from solid, 21° C.; Oil/IL 80/20 weight ratio; IL Tetrabutylammonium [2-(2-methoxyethoxy)ethoxy]acetate; read-out: Solubility of fluxapyroxad with Cetiol ® B as oil
quantityName: solubility

Provide measured solubility value, entry: `Cn1cc(C(=O)Nc2ccccc2-c2cc(F)c(F)c(F)c2)c(C(F)F)n1`
27.5 mg/mL

----------
experiment: Solubility of agrochemical active ingredient in oil comprising ionic liquid; type: physicochemical; conditions: Cetiol B oil comprising ionic liquid, 21 °C, oil or lipid, thermodynamic from solid, 21° C.; Oil/IL 60/40 weight ratio; IL N-butyl-N′-methylimidazolium dimethylphosphate; read-out: Solubility of fluxapyroxad with Cetiol ® B as oil
quantityName: solubility
Could you give the number and then its unit, please?

Provide measured solubility value, entry: `Cn1cc(C(=O)Nc2ccccc2-c2cc(F)c(F)c(F)c2)c(C(F)F)n1`
43.1 mg/mL

----------
test: Solubility of UV absorber in oil comprising ionic liquid; assay type: physicochemical; conditions: neat ionic liquid (no oil), 21 °C, organic solvent or mixture, thermodynamic from solid, 100 IL (no oil), IL N-butyl-N′-methylimidazolium acetate, read-out: Solubility of Tinosorb ® S with Cetiol ® B as oil
quantityName: solubility (µg/mL)
Supply the numeric figure in µg/mL, leaving out any unit text.

Provide measured solubility value, entry: CCCCC(CC)COc1ccc(-c2nc(-c3ccc(OC)cc3)nc(-c3ccc(OCC(CC)CCCC)cc3O)n2)c(O)c1 (stereo not shown)
1000

----------
assay: Solubility of agrochemical active ingredient in oil comprising ionic liquid; type: physicochemical; conditions: Cetiol B oil comprising ionic liquid, 21 °C, oil or lipid, thermodynamic from solid, 21° C.; Oil/IL 60/40 weight ratio; IL N-butyl-N′-methylimidazolium acetate; read-out: Solubility of fluxapyroxad with Cetiol ® B as oil
quantityName: solubility (mg/mL)
Supply the numeric figure in mg/mL, leaving out any unit text.

Provide measured solubility value, entry: Cn1cc(C(=O)Nc2ccccc2-c2cc(F)c(F)c(F)c2)c(C(F)F)n1 [fluxapyroxad]
50.6

----------
assay: Solubility of agrochemical active ingredient in oil comprising ionic liquid; type: physicochemical; conditions: Cetiol B oil comprising ionic liquid, 21 °C, oil or lipid, thermodynamic from solid, 21° C.; Oil/IL 20/80 weight ratio; IL N-ethyl-N′-ethylimidazolium propionate; read-out: Solubility of fluxapyroxad with Cetiol ® B as oil
quantityName: solubility
Could you give the number and then its unit, please?

Provide measured solubility value, entry: Cn1cc(C(=O)Nc2ccccc2-c2cc(F)c(F)c(F)c2)c(C(F)F)n1 [fluxapyroxad]
60.2 mg/mL

----------
assay: Solubility of agrochemical active ingredient in oil comprising ionic liquid; format: physicochemical; conditions: neat ionic liquid (no oil), 21 °C, organic solvent or mixture, thermodynamic from solid, 21° C.; 100 IL (no oil); IL N-ethyl-N′-methylimidazolium dibutylphosphate; read-out: Solubility of fluxapyroxad with Cetiol ® B as oil
quantityName: solubility
Could you give the number and then its unit, please?

Provide measured solubility value, entry: `Cn1cc(C(=O)Nc2ccccc2-c2cc(F)c(F)c(F)c2)c(C(F)F)n1`
9500 µg/mL

----------
assay: Solubility of agrochemical active ingredient in oil comprising ionic liquid; type: physicochemical; conditions: 21 °C, oil or lipid, thermodynamic from solid, 21° C.; Oil/IL 20/80 weight ratio; IL N-ethyl-N′-methylimidazolium isononanoate; read-out: Solubility of fluxapyroxad with Solvesso ® 200 ND as oil
quantityName: solubility (mg/mL)
Supply the numeric figure in mg/mL, leaving out any unit text.

Provide measured solubility value, entry: `Cn1cc(C(=O)Nc2ccccc2-c2cc(F)c(F)c(F)c2)c(C(F)F)n1`
28.6
